Would you mind telling me the reported LogDpH=7.4 of each entry?
- Assay Details: Octanol-water distribution coefficient (LogDpH=7.4)
- Format: physicochemical
- Assay Context: n-octanol/PBS pH 7.4; radioactive ligand
- Description: This distribution coefficient may be determined by measuring the equilibrium distribution, e.g. at room temperature (20° C.o) of a compound in accordance with the invention in a two-phase system containing equal amounts, such as 1.00 ml each, of n-octanol and PBS (pH=7.4), and calculating the logD7.4 value as log 10 (concentration in octanol/concentration in PBS). […] Quantification occurs by the determination of the activity of each isolated probe in a γ-counter. […]
One number for each entry.

C[C@@H](O)[C@H](NC(=O)[C@@H]1CSSC[C@H](NC(=O)[C@@H](Cc2ccccc2)NC(=O)CN2CCN(CC(=O)O)CCN(CC(=O)NCCCC[C@@H](NC(=O)C[N+](C)(C)Cc3ccc([Si](F)(C(C)(C)C)C(C)(C)C)cc3)C(=O)O)CCN(CC(=O)O)CC2)C(=O)N[C@@H](Cc2ccc(O)cc2)C(=O)N[C@H](Cc2c[nH]c3ccccc23)C(=O)N[C@@H](CCCCN)C(=O)N[C@@H]([C@@H](C)O)C(=O)N1)C(=O)O [[Ga]01, metal not drawn]
−1.19

Continue with the next compound.
Name the recorded LogDpH=7.4 for C[C@@H](O)[C@H](NC(=O)[C@@H]1CSSC[C@H](NC(=O)[C@@H](Cc2ccccc2)NC(=O)CN2CCN3CCN(CC(=O)NCCCC[C@@H](NC(=O)[C@@H](CNC(=O)C[N+](C)(C)Cc4ccc([Si](F)(C(C)(C)C)C(C)(C)C)cc4)NC(=O)[C@@H](CCCCN)NC(=O)[C@@H](CCC(=O)O)NC(=O)[C@H](N)CCC(=O)O)C(=O)O)CCN(CC2)CC(=O)[O][Ga+][O]C(=O)C3)C(=O)N[C@@H](Cc2ccc(O)cc2)C(=O)N[C@H](Cc2c[nH]c3ccccc23)C(=O)N[C@@H](CCCCN)C(=O)N[C@@H]([C@@H](C)O)C(=O)N1)C(=O)O [[Ga]06] .
−2.28
